# system-name: T1, human GITR, membrane bound (on activated human T cells and on 3A9-hGITR cells) (human, UniProt Q9Y5U5 26-241)
# T1 construct: whole, on cells; the cell is named under assay; also called huGITR; TNFRSF18
# T1 sequence (looked up): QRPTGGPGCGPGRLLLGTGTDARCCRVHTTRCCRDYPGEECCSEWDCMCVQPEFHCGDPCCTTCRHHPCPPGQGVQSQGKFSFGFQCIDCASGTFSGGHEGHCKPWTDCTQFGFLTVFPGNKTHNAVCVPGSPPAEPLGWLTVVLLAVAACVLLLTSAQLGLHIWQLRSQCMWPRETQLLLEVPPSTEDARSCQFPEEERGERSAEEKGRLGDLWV
# measurement-notes: FACS binding to 3A9-hGITR transfectant, Geo-MFI (PE); EC50 table beside the curves; unit from the axis
pEC50: −log10 of the molar value.
# if value of pEC50 reaches 7, tag MET; if it stays below, tag NOT MET

Some solved entries appear below for comparison.
28F3 VH CDR3 mutant M98Y, M111L (antibody, V domains shown, also called H1) VH: QVQLVESGGGVVQPGRSLRLSCAASGFTFSSYGMHWVRQAPGKGLEWVAVIWYEGSNKYYADSVKGRFTISRDNSKNTLYLQMNSLRAEDTAVYYCARGGSYVRGDYYYGLDVWGQGTTVTVSS VL: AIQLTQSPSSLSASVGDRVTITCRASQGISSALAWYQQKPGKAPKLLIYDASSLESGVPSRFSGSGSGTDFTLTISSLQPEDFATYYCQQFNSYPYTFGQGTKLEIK = NOT MET
28F3 VH CDR3 mutant M98Q, M111L (antibody, V domains shown, also called E1) VH: QVQLVESGGGVVQPGRSLRLSCAASGFTFSSYGMHWVRQAPGKGLEWVAVIWYEGSNKYYADSVKGRFTISRDNSKNTLYLQMNSLRAEDTAVYYCARGGSQVRGDYYYGLDVWGQGTTVTVSS VL: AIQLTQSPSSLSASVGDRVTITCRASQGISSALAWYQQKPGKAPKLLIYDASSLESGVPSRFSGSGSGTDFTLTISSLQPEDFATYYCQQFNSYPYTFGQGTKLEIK = MET
28F3 VH CDR3 mutant M98A, M111F (antibody, V domains shown, also called G2) VH: QVQLVESGGGVVQPGRSLRLSCAASGFTFSSYGMHWVRQAPGKGLEWVAVIWYEGSNKYYADSVKGRFTISRDNSKNTLYLQMNSLRAEDTAVYYCARGGSAVRGDYYYGFDVWGQGTTVTVSS VL: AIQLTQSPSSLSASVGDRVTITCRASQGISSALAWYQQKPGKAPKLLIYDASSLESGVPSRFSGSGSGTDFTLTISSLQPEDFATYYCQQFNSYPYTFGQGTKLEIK = NOT MET

Task item: // inclusive: pEC50 at least 7? input: 28F3 VH CDR3 mutant M98Y, M111F (antibody, V domains shown, also called H2) VH: QVQLVESGGGVVQPGRSLRLSCAASGFTFSSYGMHWVRQAPGKGLEWVAVIWYEGSNKYYADSVKGRFTISRDNSKNTLYLQMNSLRAEDTAVYYCARGGSYVRGDYYYGFDVWGQGTTVTVSS VL: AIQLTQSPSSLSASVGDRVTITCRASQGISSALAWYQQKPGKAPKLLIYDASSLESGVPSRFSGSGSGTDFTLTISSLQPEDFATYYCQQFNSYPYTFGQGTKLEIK
Reply: NOT MET

Task item: Check this binder for pEC50 at or above 7: 28F3 VH CDR3 mutant M98S, M111L (antibody, V domains shown, also called F1) VH: QVQLVESGGGVVQPGRSLRLSCAASGFTFSSYGMHWVRQAPGKGLEWVAVIWYEGSNKYYADSVKGRFTISRDNSKNTLYLQMNSLRAEDTAVYYCARGGSSVRGDYYYGLDVWGQGTTVTVSS VL: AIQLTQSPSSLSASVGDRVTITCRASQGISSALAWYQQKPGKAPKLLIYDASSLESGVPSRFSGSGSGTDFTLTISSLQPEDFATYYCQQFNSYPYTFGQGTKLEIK
Reply: MET
